# experimentSummary: soluble fraction after stress (log2 fold change); higher = more stays soluble; pooled small domains, quantitative proteomics
# experimentalSetup: stress: pH 4
measurementName: soluble fraction (log2)

Q) Which soluble fraction (log2) value belongs to `HMLVYQRLDKDNFIFEGKTLLNDIYKILDIESNYFEAIRGEADSIAGLLLEIAKSIPTINTEF` ?
A) -0.571

Q) Which soluble fraction (log2) value belongs to `HMSDLFKYSPYKTLTEEQYKITYQIIERLKTDLSNGIPRISIIDGGAGTGKSILGIFLLKLLVDAQN` ?
A) 0.321

Q) Which soluble fraction (log2) value belongs to `HMLTNNYKNDKALRFAKNHGIHESNILKLVSLYENAPEKGFNAQSIAELLGITPRSASRILVKLLQHNLIR` ?
A) 0.381

Q) Which soluble fraction (log2) value belongs to `HMVEVPNVSNLTLEQAENKLIQQGLQVKLEGQGEKVVAQIPQPGAVVNKKSTVILF` ?
A) 0.0373

* * *

# experimentSummary: soluble fraction after stress (log2 fold change); higher = more stays soluble; pooled small domains, quantitative proteomics
# experimentalSetup: stress: pH 4
measurementName: soluble fraction (log2)
Please reply with the number alone, leaving off any unit.

Please review the following examples before continuing.
HMQTTDTGAIETIVDELMAANPDKVEAYRGGKTGLQGFFMGQVMKQLGGQGNPKVISAIVTEKLE = 0.257
HMQDPRITRTRGLILQAFDALLVEKGFHALSVQAIAGRAGINRATFYAHFADKYALLDTSIQE = 0.081
HMESADEESNALMYDGLLAMRGKRYEVALEFFDALVKHDPDFAEGWNKRATVLYLLGRYERSIADIKQVLA = -0.0176
HMEKTIQIYDNIIIKDFAEKMEVSPSQVITKLIGLGVMANLNQPIDINSAVIVGKEFGFNVESM = -0.952
HMKSKNILLGEYKGKEVHVGEGKYGPFILYDKKFKSIGAYLTENSLMLKDLTIEDYSKIMKFTENSNSKS = 0.0285
HMYEVVPNMRGLTYNQATAALAAAGLKVELSDSIYDEHTQPGTVLDQSPRPNTKVKPNRVVYLTVNAF = -0.0904
HMNVAELIEGHEAEIAEVLKEFSLLYLMRLADELGEMTKSSSGNGPFQVLKGLVYEEIARRG = -0.416
HMIVLPGEELEVHIVQEGKEDGQGVAYLDDGTMVVVEGGRPYVDSFAYVAVTRVLQTGAGRIIFAHPTR = -0.108
HMKDLDSLSQEAKSVYAVFSDKPIHIDDIKRKTGLDFSKLFKAVTELELAELISSGEGKMYSL = -0.858
HMISKTFEINEDNINNRLDIFLANQFDNLSRGIVQKLIESHSVSVSGNFVEKDYKLKLGDIIDVEINLS = -0.853

Q) Which soluble fraction (log2) value belongs to `HMSWEDSLLKQAREIIDMYPQKRSAVGPLLHLAQSKDGYISDDSISVISKLVGITEVQLKSVSTFYSMYK` ?
A) -1.23

Q) Which soluble fraction (log2) value belongs to `HMSMPTITLQHYKRGSHYYASIIETFRDPVTRKNSSRTLEALGDISEKMKEDPNYLQSLKDRVKALRSD` ?
A) 0.156

Q) Which soluble fraction (log2) value belongs to `HMLPYGDRRRHTDNTISRIRELAAALDDSGIADRLNQDGYVTPEGKPFTYAGVRWIRYKYDISGPYERN` ?
A) -0.364

Q) Which soluble fraction (log2) value belongs to `HMDTIVVAARSIQARQTLTESDLRVEEQEIGAASDKYYTDIAEAVGLVSSRRLSPGQPILRTM` ?
A) -0.273

Q) Which soluble fraction (log2) value belongs to `HMEIDFDKINSIFNDANKLYEEGDYFEANNLYKNIVSSNIISKDLYYNLGLSYAKIGSNGYAILWYERALN` ?
A) -0.215

Q) Which soluble fraction (log2) value belongs to `HMYAHLGKNLEVVINKALAQEDPEKKAGFAHHIAYYMKLAYSNWHKELVHDDAIRSELDTITGGELEFSN` ?
A) -0.0696

Source of measurements: the domain aggregation screens of Martell et al. (2025)
